- Assay protocol: growth loss of phage-infected AddAB-carrying E. coli, confirmation, counter-screen for RecBCD inhibitor project, absorbance, E. coli V3065, T4 phage (AID 651984);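 further: higher means less bacterial growth from phage killing when AddAB is blocked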
- Measurement setup: E. coli expressing H. pylori AddAB + T4 phage, OD growth; at 11.9 µM; active compounds read high; gene 2 mutant T4, recBCD-deleted host
The other results are listed elsewhere or left out.
# maps each entry to its inhibition
Provide the reading as a plain figure in %.

C=CC1=C(C(=O)O)N2C(=O)[C@@H](NC(=O)/C(=N\OCC(=O)O)c3csc(N)n3)[C@H]2SC1
104

So, COc1cccc(C(O)c2ncc(-c3ccc4ccccc4c3)[nH]2)c1 (stereo unspecified) ? Its inhibition was 13.4

So for "CC(=O)c1c(C)n([O-])c2ccccc2[n+]1=O" , the logged inhibition turned out to be 87.7

Per the records, this compound ( "C=CCNC(=O)CSc1nc2sc(C)c(C)c2c(=O)[nH]1" ) has inhibition equal to -2.04

Lab note: measured inhibition of "Oc1c(CN2CCN(c3ccc(F)cc3)CC2)cc(Cl)c2cccnc12" was 3.33

Consider "Cn1ccc(=Nc2ccc(NC(=O)c3ccc(N=c4ccn(C)c5ccc([N+](=O)[O-])cc45)cc3)cc2)cc1" . Its measured inhibition is 102

Looking up "Cc1cccc(NC(=O)Cn2cc(C(=O)c3ccco3)c3ccccc32)c1" , I see its inhibition listed as 7.23

Given item "Oc1cccc(/C=N/Nc2ccc(Cl)nn2)c1O" , the value recorded as its inhibition is 26

Record summary for "C=CCn1c(=O)c(C(=O)NCc2ccc3c(c2)OCO3)c(O)c2ccccc21" : reported inhibition = 6.71

Looking up "O=C(NN=Cc1ccccc1O)NN=Cc1ccccc1O" , I found its inhibition recorded as 6.88

Lookup result for S=C(NCC1COc2ccccc2O1)Nc1ccc(Br)cc1 (stereo unspecified) ; measured inhibition: 6.67

inhibition recorded for this compound, "Cc1ccc(NC(=O)Nc2nnc(-c3ccncc3)s2)cc1" , is 9.8

The compound O=C1c2ccccc2NC(c2ccc(-c3cccc(Cl)c3)o2)N1O (stereo unspecified) showed inhibition equal to 18.9

---

- System tested: Oxysterols receptor LXR-beta (Homo sapiens) (UniProt P55055)
- Sequence (P55055 whole entry, looked up, the tested form may be a part): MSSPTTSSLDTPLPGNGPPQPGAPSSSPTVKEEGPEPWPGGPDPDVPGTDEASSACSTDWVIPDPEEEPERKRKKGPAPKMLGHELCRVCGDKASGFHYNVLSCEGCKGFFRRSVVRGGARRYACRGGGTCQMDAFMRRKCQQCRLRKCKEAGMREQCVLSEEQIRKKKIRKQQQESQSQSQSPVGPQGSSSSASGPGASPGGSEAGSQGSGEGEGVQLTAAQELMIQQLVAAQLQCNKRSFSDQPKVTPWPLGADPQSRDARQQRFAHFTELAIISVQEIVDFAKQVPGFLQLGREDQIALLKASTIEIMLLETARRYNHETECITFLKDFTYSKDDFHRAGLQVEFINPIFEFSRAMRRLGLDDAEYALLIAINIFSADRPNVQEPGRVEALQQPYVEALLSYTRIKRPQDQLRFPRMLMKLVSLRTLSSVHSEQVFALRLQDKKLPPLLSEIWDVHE
- Assay protocol: LXR agonists, Gal4 luciferase reporter, confirmation, counter-screen for hgDAF-12 agonist project, cell-based, luminescence, HEK293, H. glycines campaign (AID 743051)
- Measurement setup: 24 h, at 6.8 µM, active compounds read high
This is one part of the list.
Outcome measure: activation (%)
Response body: numeric value in %, unit text excluded.

Illustrative cases are given below, each with its answer.
CCc1ccc(NC2Nc3cc(C)nn3S2)cc1 (centres undefined)
0.76
O=C(NCCCn1ccnc1)c1cc(-c2ccccc2)on1
0.27
O=c1c2c(nc3cc(-c4cccc(Cl)c4)[nH]n13)CCCC2
1.15
CCSc1nnc(NC(=O)c2ccc(C)cc2)s1
0.93
COc1cccc(/C=C/C(=O)Nc2ccc3c(c2)OCCO3)c1
0.69
COc1ccc(/C=C2/CCCc3ccccc3C2=O)cc1
0.78
c1ccc(CN=C2Nc3ccccc3CS2)nc1
0.55
Cc1ccnc(NC(=O)C2CCN(S(=O)(=O)c3c(C)c(C)cc(C)c3C)CC2)c1
0.16
CC(=O)Nc1cccc(-c2csc(Nc3cccc(C)n3)n2)c1
1.17
O=C(CSC(=S)N1CCCCC1)c1c(F)cccc1F
0.64

Short answer for "CC(C)C(=O)Nc1cccc(C(=O)Nc2ccc3c(c2)OCO3)c1" : activation was 0.72

Measured activation of "Cc1cccc(NC(=O)c2ccc3ccccc3n2)n1" : 0.69

According to the records, this molecule "COc1cc(SC)ccc1C(=O)Nc1cc(C)ccn1" displays activation of 1.05

activation reported for this molecule "Cc1ccc(N/C=C/C(=O)c2ccccc2)cc1C" : 1.25

---

- Test system: transactivating tegument protein VP16 (Human herpesvirus 1), Gal4-VP16 luciferase reporter
- Assay protocol: VP16 transactivation inhibitors, counter-screen for SRC3 inhibitor project, cell-based, luminescence, high throughput (AID 588794)
- Measurement setup: mammalian cells, VP16-driven luciferase reporter luminescence; at 3.6 µM; active compounds read high
Outcome measure: inhibition (%)
# output: bare number, implied unit %

N#Cc1sc2nccc(Nc3ccccc3)c2c1N
62.4
CNc1ccc2ncc(-c3ccc(OC)c(OC)c3)n2n1
63.1
COC1=CC(=O)c2c(ccc3ncnc(N)c23)C1=O
65.1
Cc1ccc2ccc3cccnc3c2n1
18.9
CCOc1ccc(Nc2ncnc3ccc([N+](=O)[O-])cc23)cc1
43.6

Notebook: "Cc1ccc2nc(NNC(=O)c3ccc(S(=O)(=O)N4CCc5ccccc5C4)cc3)sc2c1" , inhibition read as 46.4

inhibition for "Cc1cc(C(C)(C)C)cc(C)c1C[n+]1ccc2ccccc2c1" is 59.3

The molecule listed as C=C1C(=O)[C@]23C[C@H]1CCC2[C@@]1(C)C(C[C@@H]3O)[C@](C)(C(=O)OC)CC[C@@H]1OC(C)=O (stereo not given in full) has a reported inhibition of 44.9

// recorded inhibition for "COc1cc(Cn2c3ccc(NC(=O)CCc4ccc(O)cc4)cc3c(=O)n2C)ccc1F" : 61.3

Just so you know, measured inhibition for "Cc1ccc(S(=O)(=O)/N=C2\C=C(Nc3ccc(O)cc3)C(=O)c3ccccc32)cc1" came out at 83.1

Form field inhibition, entry "Brc1ccc2ncnc(NCc3cccnc3)c2c1" : 44

response.value for "O=C(CNS(=O)(=O)Cc1ccccc1)NNc1ccccc1" (field: inhibition) = 12.1

Input "COC(=O)N/N=C/c1cn(Cc2ccc(Cl)cc2Cl)c2ccccc12" . Output inhibition: 0.26

The reported inhibition of the molecule "O=c1c2ccccc2cnn1-c1nc2ccccc2[nH]1" was 50.6

inhibition reading for "Cc1noc(/C=C/c2ccccn2)c1[N+](=O)[O-]" : 47.8

The molecule "CCN(CC)c1ccc(/C=N/NC(=O)c2cccc(S(=O)(=O)N3CCOCC3)c2)c(O)c1" showed inhibition equal to 61.7

---

- Assay protocol: TR-FRET optical interference artefacts, confirmation, artefact control for LEDGF/p75-dependent integration inhibitor project, biochemical, HIV-1 IN multimerization (AID 1053135);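 further: 0% = integrase with antibodies and DMSO and 100% = antibodies without integrase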
- Measurement setup: TR-FRET optical interference counterscreen, at 7.7 µM, active compounds read high
This is one part of the list.
Outcome measure: inhibition (%)
Only the number, expressed in %, is required.

The following molecules have reported results that may help.
CSc1nc(N)c(C#N)c(-c2ccccc2Cl)c1C#N
3.41
COC(=O)C1=C(C)N(C)C(=O)NC1c1ccc([N+](=O)[O-])o1 (stereo unspecified)
-3.75
Cc1ccc(Cc2cnc(N)s2)o1
-22.6
CN(Cc1ccc(F)cc1)C(=O)CN1C(=O)c2ccccc2S1(=O)=O
4.33

GET /value?item= CC(=O)OCC1(O)CC23CCC4c5ccoc5CCC4(C)C2CCC1C3 (stereo unspecified) &field=inhibition returns -0.26

# molecule "Cc1cc(Oc2ccc(Cl)cc2)nc(SCC(=O)c2ccccc2)n1" ; its inhibition = 1.56

The measured inhibition associated with "Cc1cc(C)c2nc(-c3ccco3)cc(C(=O)O)c2c1" reads -12.9

// sample CN(C(=O)COC(=O)c1cc(-c2ccco2)nc2ccccc12)C1CCS(=O)(=O)C1 (stereo unspecified) , its inhibition was -121

// sample CC1(C(=O)NS(=O)(=O)c2ccccc2)CCN1C(=O)Cc1ccc(-c2ccccc2)cc1 (stereo unspecified) , its inhibition was 2.02

For record "CCOC(=O)c1ccc(Nc2cc3ccccc3c(=O)[nH]2)cc1" the listed inhibition is 8.23

molecule "Cc1ccc(-c2nn(-c3ccccc3)cc2/C=C2\SC(=S)N(CCCCCC(=O)O)C2=O)o1" , inhibition observed: -492

---

- System tested: Steroidogenic factor 1 (Homo sapiens)
- Assay protocol: SF1 (NR5A1) inverse agonists, counter-screen for LRH-1 inverse agonist project, cell-based, luminescence, high throughput (AID 651614);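 further: cells cotransfected with StAR promoter reporter and SF1 expression vector; 0% = vehicle on cells with receptor and 100% = vehicle on cells lacking receptor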
- Measurement setup: cell-based SF1 luciferase reporter, at 3.6 µM
Calls of active or inactive are those of the source. No stated cut-off is given here; in the data, active means inhibition above about 44%; inactive means the rest.
Select the matching outcome among TRUE (active), FALSE (inactive)

These recorded examples may help you get a feel for the data.
CCCN(CC(=O)Nc1ccc(C(N)=O)cc1)CC(=O)Nc1ccccc1C
TRUE
O=C(COc1cc2oc(=O)cc(-c3ccccc3)c2cc1Cl)NCCN1CCOCC1
FALSE
CC(NC(=O)c1ccco1)C(c1cccs1)N1CCN(c2ccccc2F)CC1 (configuration not stated)
FALSE
Cc1ccc(NC(=O)CSc2nnc(-c3n[nH]c4ccccc34)n2-c2ccccc2)c(C)c1
TRUE
CC1CN(S(=O)(=O)c2ccc(C(=O)NCCCn3ccnc3)cc2)CC(C)O1 (configuration not stated)
TRUE
COc1cc(OC)cc(C(=O)N[C@H](C(=O)OCC(=O)Nc2ccc3c(c2)OCO3)C(C)C)c1
TRUE
O=C(NCCCc1ccccc1)c1cc([N+](=O)[O-])ccc1Cl
TRUE
CC(=O)Nc1cc(-c2cccc(N)c2)cn2c(-c3ccc(C(C)=O)cc3)cnc12
FALSE

Prompt: I'd appreciate the recorded outcome for "COc1ccc(C(=O)N/N=C(\c2ccccc2)c2ccccn2)cc1" from this test.
Completion: TRUE

Prompt: Recorded call for "COc1cc(N=Cc2c(O)[nH]c3ccccc23)cc(OC)c1OC" ?
Completion: TRUE

Prompt: Please state the recorded outcome for this compound: "N#CC1=C(N)C(C#N)(C#N)[C@H](c2c(F)cccc2F)[C@H]2CC3(CC=C12)OCCO3"
Completion: TRUE
